Measured Target: Neuropeptide Y receptor type 5 (Homo sapiens, UniProt Q15761)
Assay Overview: Human Neuropeptide Y5 receptor binding affinity
Measured Metric: IC50 (nM)

Worked set:
compound_structure_string=Cc1ccc(S(=O)(=O)NC[C@H]2CC[C@H](C(=O)NNC(=O)c3cc4ccccc4s3)CC2)cc1 value_units=nM endpoint_result=42.9
compound_structure_string=O=C(NNC(=O)[C@H]1CC[C@H](CNS(=O)(=O)c2cccs2)CC1)c1cccs1 value_units=nM endpoint_result=12.5
compound_structure_string=O=C(NNC(=O)[C@H]1CC[C@H](CNS(=O)(=O)c2cccc3cccnc23)CC1)c1cccs1 value_units=nM endpoint_result=147

[P] O=C(NNC(=O)[C@H]1CC[C@H](CNS(=O)(=O)c2ccc(Cl)cc2)CC1)c1cccs1
[Q] O=C(NNC(=O)[C@H]1CC[C@H](CNS(=O)(=O)c2cccc3cccnc23)CC1)c1cc2ccccc2s1
Query: Hey, which is lower on measured IC50, P or Q ? Answer by stating the label of the chosen item.
Result: P

====

Target protein (sequence): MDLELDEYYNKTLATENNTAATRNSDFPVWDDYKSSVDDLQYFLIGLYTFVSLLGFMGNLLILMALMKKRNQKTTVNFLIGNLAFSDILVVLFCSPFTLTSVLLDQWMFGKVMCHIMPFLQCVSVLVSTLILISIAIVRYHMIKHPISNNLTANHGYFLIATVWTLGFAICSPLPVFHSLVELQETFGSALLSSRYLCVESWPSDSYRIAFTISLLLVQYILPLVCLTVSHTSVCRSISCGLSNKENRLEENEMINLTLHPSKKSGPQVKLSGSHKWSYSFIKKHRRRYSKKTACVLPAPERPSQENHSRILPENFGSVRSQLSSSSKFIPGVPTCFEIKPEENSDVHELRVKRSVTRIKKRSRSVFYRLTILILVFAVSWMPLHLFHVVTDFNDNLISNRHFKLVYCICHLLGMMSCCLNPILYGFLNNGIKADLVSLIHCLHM
Measured Metric: IC50 (nM)

Worked set:
compound_structure_string=O=C(NNC(=O)[C@H]1CC[C@H](CNS(=O)(=O)c2ccccc2)CC1)c1cc2ccccc2s1 endpoint_result=175
compound_structure_string=O=C(NNC(=O)[C@H]1CC[C@H](CNS(=O)(=O)c2cccs2)CC1)c1cc2ccccc2s1 endpoint_result=11.5
compound_structure_string=CC(C)c1cc(C(C)C)c(S(=O)(=O)NC[C@H]2CC[C@H](C(=O)NNC(=O)c3cc4ccccc4s3)CC2)c(C(C)C)c1 endpoint_result=142

[P] CC(C)c1cc(C(C)C)c(S(=O)(=O)NC[C@H]2CC[C@H](C(=O)NNC(=O)c3cccs3)CC2)c(C(C)C)c1
[Q] O=C(NNC(=O)[C@H]1CC[C@H](CNS(=O)(=O)c2ccccc2)CC1)c1cccs1
Query: Hey, which is lower on measured IC50, P or Q ? Answer by stating the label of the chosen item.
Result: Q
(Q: 32.2 nM, P: 47.7 nM)
